Values were extracted from ChEMBL document CHEMBL1147555.

Kindly supply the reported inhibition in vivo at 3 mg/kg values for the records listed here.
Test system: Rattus norvegicus
assay protocol: Inhibitory effect of compound on carrageenan-induced rat paw edema administered p.o. at 3 mg/kg
Assay type: functional
condition notes: route oral
Answer with the figure and its unit, nothing else.

A selection of reference data follows.
line notation	study system	parameter	measured value
CS(=O)(=O)c1ccc(-c2occ(Cl)c(=O)c2-c2ccc(F)c(F)c2)cc1	Rattus norvegicus	inhibition in vivo at 3 mg/kg	10%
CS(=O)(=O)c1ccc(-c2occ(Cl)c(=O)c2-c2ccc(F)cc2)cc1	Rattus norvegicus	inhibition in vivo at 3 mg/kg	20%
CS(=O)(=O)c1ccc(-c2occ(Cl)c(=O)c2-c2ccc(F)cc2F)cc1	Rattus norvegicus	inhibition in vivo at 3 mg/kg	20%

Then this molecule:
# returns recorded inhibition in vivo at 3 mg/kg (system: Rattus norvegicus) for Cc1ccc(-c2cc(C(F)(F)F)nn2-c2ccc(S(N)(=O)=O)cc2)cc1
29%
